METHOD SUMMARY: Toxicity liver stage against HepG2, at 10uM
Format: cell-based
Parameters: test concentration 10 uM, cell line HepG2-A16-CD81EGFP
EXPERIMENTAL SETUP: human, HepG2-A16-CD81EGFP cells; read-out: INHIBITION
Parameter cytotoxicity at 10 µM: see the listing below.
Write the number in % without appending the unit.

Item COC(=O)CC(C)(C)CC(=O)N1CCC(C(F)(F)F)CC1 has what recorded cytotoxicity at 10 µM?
14.9

* * *

METHOD SUMMARY: Toxicity liver stage against HepG2, at 10uM
Format: cell-based
Design: test concentration 10 uM, cell line HepG2-A16-CD81EGFP
EXPERIMENTAL SETUP: human, HepG2-A16-CD81EGFP cells; read-out: INHIBITION
Parameter cytotoxicity at 10 µM: see the listing below.
Write the number in % without appending the unit.

# example entries with known answers
COMPOUND	cytotoxicity at 10 µM / %
CCN(CCN1CCCCCC1)C(=O)COc1cccnc1	12.6
O=C(CCn1nc(C(F)(F)F)c(Cl)c1C1CC1)NN1CCOCC1	7.69
O=C(c1ccccc1-c1nc[nH]n1)N1CCOC(C(F)(F)F)C1 (stereo not drawn)	-0.359
CC(C)CN1C(=O)C2(CCCC2)NC12CCSCC2	-135
CC(C)c1cc(CN(C)C(=O)CN2CCC(C(N)=O)CC2)no1	-0.0154
COc1cc(CCC(=O)N2CCC(c3cnccn3)CC2)on1	3.1
CS(=O)(=O)NCCCSCc1cccc2cccnc12	3.53
CC(C)N(C)CC(=O)Nc1ccc(-n2ccc(C(N)=O)n2)cc1	-3.54
CN(CCc1ccncc1)CCc1nccs1	1.8
CNC(=O)c1ccc(CNCc2ccc(SC)c(OC)c2)cc1	0.838

Item CCOC(=O)CNC(=O)c1cccnc1Oc1ccc(Cl)cc1 has what recorded cytotoxicity at 10 µM?
1.63

Item O=C(NCc1ccco1)[C@H]1C[C@@H]2CCN(c3ccncn3)C[C@@H]2O1 has what recorded cytotoxicity at 10 µM?
-9.58

Item CNc1cncc(C2CCN(C(=O)c3coc(C)n3)CC2)n1 has what recorded cytotoxicity at 10 µM?
0.109

Item CCc1noc(CN(CCc2ccccc2)C2CCN(C)CC2)n1 has what recorded cytotoxicity at 10 µM?
0.15

Item CCc1nc(C2CCCN2C(=O)CCn2cncn2)no1 (stereo not drawn) has what recorded cytotoxicity at 10 µM?
-5.63

Item COCc1nc(CN2CC(C)(c3ccccc3)CCC2=O)no1 (stereo not drawn) has what recorded cytotoxicity at 10 µM?
4.85

Item Cc1ccc(NC(=O)N2CCC(CO)(Nc3ccccc3)CC2)cc1 has what recorded cytotoxicity at 10 µM?
-0.405

Item CN(C)C(=O)N1CC(C(=O)NCC2CC2)C2(CCOCC2)C1 (stereo not drawn) has what recorded cytotoxicity at 10 µM?
-95.1
